Data provenance is ChEMBL document CHEMBL3988442.

# Tested on: Wolbachia pipientis
# Experiment notes: Anti-Wolbachia Cell-Based Screen
# Format: functional
# Parameters: scale not given: in the data most compounds retested in dose-response had high values
# Assay setup: 5 µM
The campaign covered roughly 48,000 compounds. About 13,000 (27%) showed an effect of 50% or more. The list shows a part of the results.
Kindly state Percent Effect for each of the entries shown.
Numbers only, in %.

Examples from the recorded data:
# input compound: CCc1ncnc(N2CCOCC2CCO)c1F (configuration not stated) ; wanted: its Percent Effect
97.7

Note, next up: COc1ccc(Br)cc1CN(C)C(C)c1nc(C)no1 (configuration not stated)
6.293

Would you mind doing COC(=O)c1ccc(OC)c(CN2CCN(CC(C)C)C(=O)C2C)c1 (configuration not stated) as well?
1.65

Moving on to the next compound: CCc1ncnc(N2CCOCC2C(N)=O)c1F (configuration not stated)
114.1

Quick one: CC[C@H]1COCCN1C(=O)c1cnc(C(C)C)nc1C
-0.1974

Also CNC(=O)c1ccc(-c2ccccc2)n1C , if possible.
-8.126

Param item: Cc1csc(N2CCCN(C(=O)c3cnns3)CC2)n1
3.916

Try this compound next: Cc1nn(C)c(C)c1C1COCCN1c1ncnc2sccc12 (configuration not stated)
-13.78

Items follow; give Percent Effect for each.
1. Cc1cn2c(n1)C(CNCc1cnn3ccccc13)CCC2 (configuration not stated)
2. CCc1c(C)sc2ncnc(N3CC[C@@H](N4CCOCC4)[C@H](O)C3)c12
3. O=C(NCC1(CO)CC1)c1cccc2ccccc12
4. CCOCC(=O)N1CCc2c(ncnc2N2CCOCC2)C1

1: 10.2; 2: -13.58; 3: -22.57; 4: -19.06

###

I'd appreciate it if you could supply Percent Effect values for the items below.
# Tested on: Wolbachia pipientis
# Experiment notes: Anti-Wolbachia Cell-Based Screen
# Assay type: functional
# Parameters: scale not given: in the data most compounds retested in dose-response had high values
# Assay setup: 5 µM
About 13,000 (27%) of roughly 48,000 compounds showed an effect of 50% or more. This is one part of the list.
Give bare numbers, in %.

Endpoint output: Percent Effect of Cn1nc(CNC(=O)c2cccc(C(F)(F)F)c2)c2c1CCOC2 . Value?
111.4

Provide reported Percent Effect for each item, in the same order as listed.
1. Cc1ccccc1CCCN(Cc1ccccn1)S(C)(=O)=O
2. Cn1nc(CNC(=O)c2ccc3nsnc3c2)c2c1CCOC2
3. CCn1cc(-c2nccnc2C2CCCN(C(C)=O)C2)cn1 (stereo not given)
4. CCN1CCn2nc(CCC(=O)N3CCCC3)cc2C1
5. CNC(=O)CCc1cccc(OC2CCCC2)c1
6. CC[C@@H]1N(Cc2ccc(C)s2)CCC[C@]12CCC(=O)N2C.O=C(O)C(F)(F)F

1. 19.14
2. 120.7
3. 156.7
4. 0.2115
5. 6.693
6. 100.7

###

# System: Wolbachia pipientis
# Experiment notes: Anti-Wolbachia Cell-Based Screen
# Assay type: functional
# Parameters: scale not given: in the data most compounds retested in dose-response had high values
# Assay setup: 5 µM
The campaign covered roughly 48,000 compounds. About 13,000 (27%) showed an effect of 50% or more. The list shows a part of the results.
Measured property: Percent Effect (%)
Answers are plain numbers, in %.

Hello, I would appreciate it if you could give Percent Effect for each entry below.
1. Cc1ncsc1-c1nnc(C2CCN(Cc3cccc(Cl)c3)CC2)o1
2. O=S(=O)(c1ccc(Cl)cc1)N1CCOC[C@H](Oc2cnccn2)C1
3. O=C(NC1CCS(=O)(=O)C1)c1ccc(-c2ccc(F)cc2)s1 (stereo not drawn)
4. CC(C)n1cc(C(=O)NC2CCS(=O)(=O)C2)c2ccccc2c1=O (stereo not drawn)
5. Cn1cc(CN2CC3(CCN(Cc4ccsc4)C3)C2)cn1
6. Cc1ccc(CN2CCN(CC(=O)N(C)C)[C@@H]3CS(=O)(=O)C[C@@H]32)cc1C

1. 113.8
2. -1.113
3. 1.727
4. 104.9
5. -4.449
6. 8.037
